Record form. Attribute: OD450, clone binding with PD-1. Fill in for each entry.
measuredTarget: PD-1 (UniProt Q15116)
Sequence (Q15116 25-170 limits assumed): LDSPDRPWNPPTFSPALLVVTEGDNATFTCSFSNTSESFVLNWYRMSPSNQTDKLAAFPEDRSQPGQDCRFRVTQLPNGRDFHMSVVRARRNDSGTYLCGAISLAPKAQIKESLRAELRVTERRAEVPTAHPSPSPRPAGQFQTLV
measurementDescription: ELISA, TG1 supernatant on coated PD-1, anti-c-myc HRP
Report the value in OD450 with no unit label.

# query: OD450, clone binding with PD-1 of entry NB211 (VHH) VHH: EVQVVETGGGLAQAGGSLRLSCAASGRTFSGYTVGWYRQSPGKEREFVAAISYSGGSTDYADSVKGRFTISRDNANNTVYLQMGSLKAEDTAVYYCNRVIRGTRDPSIYYVMDYWGKGTLVTVSS
2.71

# query: OD450, clone binding with PD-1 of entry NB195 (VHH) VHH: EVQVVESGGGLVQAGGSLRLSCAASGDTILISAIGWYRQAPGKVRELVAAITNSGVTYYTDSVKGRFTISRDNAKNTVYLQMDSLKPEDTAVYYCNAGGPPPGGLGYDESDYWGPGTHVTVSS
3.13
